The values you see were collected from PubChem BioAssay (NCI).

Test system: A498 renal
Test method notes: NCI tumour cell line growth inhibition, 48 h
Observed property: log10 of TGI (log10 of the value in µM)
Heads up: the numbers are on a log10 scale; they represent TGI in µM.

{"Molecule": "N#CC1=C(N)OC2=C(CCCc3ccc([N+](=O)[O-])cc32)C1c1ccccc1 (stereo not drawn)", "System": "A498 renal", "Measured result": 1.02}
{"Molecule": "COc1ccc(-c2cc(C(=O)N3N=C(c4ccc(N)cc4)CC3c3ccc(Cl)cc3)c3ccccc3n2)cc1 (stereo not drawn)", "System": "A498 renal", "Measured result": -0.04}
{"Molecule": "CN(c1ccc(Cl)c(Cl)c1)c1cnc2cc(N)cc(N)c2n1", "System": "A498 renal", "Measured result": 1.51}
{"Molecule": "N#Cc1cc(-c2ccnc(Nc3ccc(NC(=O)CCl)cc3)n2)ccc1N1CCCC1", "System": "A498 renal", "Measured result": 1.00}
{"Molecule": "COc1cc2c(cc1OCCCCCN1C(=O)c3cccc4cccc(c34)C1=O)N=C[C@@H]1CCCN1C2=O", "System": "A498 renal", "Measured result": 0.11}
{"Molecule": "C#CC1(O)C(COP(=O)(O)OC(COCCCCCCCCCCCCCCCCCC)COP(=O)(O)OCC2OC(n3cc(C)c(=O)[nH]c3=O)CC2N=[N+]=[N-])OC(n2ccc(N)nc2=O)C1O (stereo not drawn)", "System": "A498 renal", "Measured result": 1.23}
{"Molecule": "Cc1ccc(-c2cc(=O)c3cc4c(cc3[nH]2)OCO4)cc1", "System": "A498 renal", "Measured result": 1.02}
{"Molecule": "C#CCCOC(=O)CC1=C(C)/C(=C/c2ccc(S(C)=O)cc2)c2ccc(F)cc21 (stereo not drawn)", "System": "A498 renal", "Measured result": 1.48}

Could I get log10 of TGI for every one of these entries?
1. COc1cccc(-c2nnc3c(-c4ccccc4)nc4ccccc4n23)c1
2. O=C1C(=O)/C(=C/c2ccccc2)CCCCCC/C1=C/c1ccccc1
3. COc1cc(/C=C/[N+](=O)[O-])c([N+](=O)[O-])cc1OC
4. CC(c1ccccc1)N1C(=O)CSC1=S (stereo not drawn)
5. CN(C)CCNc1c2c(c(NCCN(C)C)c3c(CN(C)C)c[nH]c13)C(=O)c1ccccc1C2=O

1. 1.97
2. 1.45
3. 1.08
4. 1.74
5. 1.53

// query log10 of TGI value for entry "Cn1c([N+](=O)[O-])cnc1/C=C1\Oc2ccc(Br)cc2C1=O"
0.67

###

Tested on: NCI/ADR-RES ovarian
Test method notes: NCI tumour cell line growth inhibition, 48 h
Decision: TGI >= 20 µM yields met, all other cases yield not met.

{"Compound": "CCCCCCCCCCCCCCCCOCC(Cl)CP(=O)(O)OP(=O)(O)OCC1OC(n2cnc3c(N)ncnc32)C(O)C1O (centres undefined)", "Group label": "met"}
{"Compound": "CN(c1ccc(C(=O)O)cc1)c1cc(O/N=[N+](\\[O-])N(C)C)c([N+](=O)[O-])cc1[N+](=O)[O-]", "Group label": "not met"}
{"Compound": "O=C(O)Cc1cc(F)ccc1C(=O)O", "Group label": "met"}
{"Compound": "C=C1C(O)C2C(=C(CC(C)C)C13CC3)C(=O)C(C)(C)C2O (centres undefined)", "Group label": "met"}
{"Compound": "N#CC1=C(N)OC2=C(CCCc3ccc([N+](=O)[O-])cc32)C1c1ccccc1 (centres undefined)", "Group label": "not met"}

Decide: TGI of "COc1cccc(-c2nnc3c(-c4ccccc4)nc4ccccc4n23)c1" >= 20 µM?
met

# iterate: "C=CCN1C(=O)CNC1=S"
met

Moving on to the next compound: CC(=O)N(C)C(C(=O)N1CC(C)CC1C(=O)N(C)C1C(=O)NC(CC(C)C)C(=O)N2CC(C)CC2C(=O)NC(CC(C)C)C(=O)N(C)C(C(C)C)C(=O)N2CCCC2C(=O)N(C)C(CC(C)C)C(=O)NCC(=O)OC1C)C(C)C (centres undefined)
met

Next compound up: "COc1cc(/C=C/c2cc(/C=C/c3ccc(O)c(OC)c3)n(C(=O)Cc3ccccc3)n2)ccc1O"
not met

# repeat for "COC(=O)CCCC(=O)C1=Nc2ccccc2CN(c2ccc(Cl)cc2)N1"
met
